meta.source: paper PMC8840619

Test system: 51D1.3
Assay: WST-1 cell viability assay
Format: cell-based, Chinese hamster
Conditions: Cricetulus griseus, 72 h, 3 days of treatment, mean ± SEM
Below, each entry is listed alongside its reported IC50.

compound_smiles	IC50
CC(=O)c1c(C)c2cnc(Nc3ccc(N4CCNCC4)cn3)nc2n(C2CCCC2)c1=O	> 2500 nM

# input Suppose we examine the molecule CC1(C)C(/C=C/C2=C(Cl)C(=C/C=C3/N(CCCCCC(=O)O)c4ccccc4C3(C)C)/CCC2)=[N+](CCCCCC(=O)O)c2ccccc21.[Br-] ; what IC50 value has been reported?
# output > 2500 nM

====

Test system: MDA-MB-231
Assay: [3H]-thymidine incorporation cell proliferation assay
Type: cell-based, human
Conditions: Homo sapiens, 72 h; MDA-MB-231; 3 days of treatment; mean ± SEM
Method: As described previously, 3000 cells per well were seeded in 96-well plates and incubated in the presence of varying concentrations of drugs for three days. Cell proliferation was measured by thymidine uptake assay, cell growth by sulforhodamine B (SRB) colorimetric assay, and cell viability by WST-1 assay, as previously described. […]
quantity: IC50

compound_smiles	IC50
CC(=O)c1c(C)c2cnc(Nc3ccc(N4CCNCC4)cn3)nc2n(C2CCCC2)c1=O	72.2 nM

# input Suppose we examine the compound CC1(C)C(/C=C/C2=C(Cl)C(=C/C=C3/N(CCCCCC(=O)O)c4ccccc4C3(C)C)/CCC2)=[N+](CCCCCC(=O)O)c2ccccc21.[Br-] ; what IC50 value has been reported?
# output > 2500 nM
